Assay: in vitro
Settings: human, Caco-2
outcome-measure: Papp B→A (×10⁻⁶ cm/s)

| compound | val |
| --- | --- |
| CC(=O)CC(c1ccccc1)c1c(O)c2ccccc2oc1=O (stereo not shown) | 27 |
